Assay notes: Antiproliferative activity against human LX2 cells assessed as inhibition of cell growth incubated for 48 hrs by CellTiter 96 Aqueous One Solution Cell Proliferation Assay
Type: toxicity, cell-based
Assay setup: LX-2 cells
Measured endpoint: IC50 at 48 h (nM)
Could you give me the number in nM? Just the number is fine.

> print(dat)
           compound.smiles  recorded.number
1  O=c1[nH]cc(F)c(=O)[nH]1              178

We now examine a further compound.
Looking up COc1cccc2c1C(=O)c1c(O)c3c(c(O)c1C2=O)C[C@@](O)(C(=O)CO)C[C@@H]3O[C@H]1C[C@H](N)[C@H](O)[C@H](C)O1 , I see its IC50 at 48 h listed as 210

###

Measured pIC50, listed per entry.
Test system: MCF7
Assay notes: cells
Assay setup: Homo sapiens, MCF7, 48 h
Description: Antiproliferative activity against human MCF7 cells assessed as inhibition of cell growth incubated for 48 hrs by CellTiter 96 Aqueous One Solution Cell Proliferation Assay
pIC50 field: float, defined as -log10 of concentration (mol/L).

> print(dat)
                            compound.smiles  experimental.system  measured.endpoint  recorded.number
1  COc1cccc2c1C(=O)c1c(O)c3c(c(O)c1C2=O)C[C@@](O)(C(=O)CO)C[C@@H]3O[C@H]1C[C@H](N)[C@H](O)[C@H](C)O1                 MCF7              pIC50             7.28

We now examine a further molecule.
Looking up O=c1[nH]cc(F)c(=O)[nH]1 , I see its pIC50 listed as 5.19

These data points were gathered from ChEMBL document CHEMBL5523704.
